Assay: T1-relaxivity with Minispec pc 20 (20 MHz, 0.47T) at 37° C. in water and human plasma
Format: physicochemical
Conditions: 20 MHz, human plasma
Exercise: state measured T1-relaxivity for each of the compounds provided.
Unit L/mmol/s implied. Number only.

Returns the measured T1-relaxivity for the input compound. Input: O=C([O-])CN1CCN(CC(=O)[O-])CCN(CC(O)COCCC(F)(F)C(F)(F)C(F)(F)C(F)(F)C(F)(F)C(F)(F)C(F)(F)C(F)(F)F)CCN(CC(=O)[O-])CC1.[Gd+3] (stereo not shown)
27.5

Same question, CCN(CC(=O)NCC(O)CN1CCN(CC(=O)[O-])CCN(CC(=O)[O-])CCN(CC(=O)[O-])CC1)S(=O)(=O)C(F)(F)C(F)(F)C(F)(F)C(F)(F)C(F)(F)C(F)(F)C(F)(F)C(F)(F)F.[Mn+2].[Na+] (stereo not shown) this time
4.2

Same question, CCN(CC(=O)NCC(O)CN1CCN(CC(=O)[O-])CCN(CC(=O)[O-])CCN(CC(=O)[O-])CC1)S(=O)(=O)C(F)(F)C(F)(F)C(F)(F)C(F)(F)C(F)(F)C(F)(F)C(F)(F)C(F)(F)F.[Gd+3] (stereo not shown) this time
49

Same question, O=C([O-])CN1CCN(CC(=O)[O-])CCN(CC(O)CNC(=O)COCCC(F)(F)C(F)(F)C(F)(F)C(F)(F)C(F)(F)C(F)(F)C(F)(F)C(F)(F)F)CCN(CC(=O)[O-])CC1.[Gd+3] (stereo not shown) this time
33

###

Exercise: state measured R^1 [L/mmol * sec] at 0.47 T and 37° C. Plasma for each of the compounds provided.
Test: T1-relaxivity with Minispec pc 20 (20 MHz, 0.47T) at 37° C. in water and human plasma
Format: physicochemical
Conditions: T1-relaxivity, Minispec pc 20 (20 MHz, 0.47 T), in human plasma
Experimental: The relaxivity of the following compounds was determined with a Minispec pc 20 (20 MHz, 0.47T) at 37° C. in water and human plasma and compared to that of Gd-DTPA-polylysine and Magnevist^(R) as comparison substances.
Unit L/mmol/s implied. Number only.

Returns the measured R^1 [L/mmol * sec] at 0.47 T and 37° C. Plasma for the input compound. Input: CNC[C@H](O)[C@@H](O)[C@H](O)[C@H](O)CO.CNC[C@H](O)[C@@H](O)[C@H](O)[C@H](O)CO.O=C([O-])CN(CCN(CC(=O)[O-])CC(=O)O)CCN(CC(=O)[O-])CC(=O)O.[Gd+3] [Magnevist, reference compound]
4.8

Same question, O=C([O-])CN1CCN(CC(=O)[O-])CCN(CC(O)COCCC(F)(F)C(F)(F)C(F)(F)C(F)(F)C(F)(F)C(F)(F)C(F)(F)C(F)(F)F)CCN(CC(=O)[O-])CC1.[Gd+3] (stereo not shown) [Example 3c] this time
27.5

Same question, CCN(CC(=O)NCC(O)CN1CCN(CC(=O)[O-])CCN(CC(=O)[O-])CCN(CC(=O)[O-])CC1)S(=O)(=O)C(F)(F)C(F)(F)C(F)(F)C(F)(F)C(F)(F)C(F)(F)C(F)(F)C(F)(F)F.[Gd+3] (stereo not shown) [Example 1c] this time
49

Same question, O=C([O-])CN1CCN(CC(=O)[O-])CCN(CC(O)CNC(=O)COCCC(F)(F)C(F)(F)C(F)(F)C(F)(F)C(F)(F)C(F)(F)C(F)(F)C(F)(F)F)CCN(CC(=O)[O-])CC1.[Gd+3] (stereo not shown) [Example 2c] this time
33
